Target: human mGluR5a receptor (Homo sapiens)
Construct: cDNA subcloned into pcDNA3.1(-)
Sequence (P41594 21-1180 isoform P41594-2 limits assumed): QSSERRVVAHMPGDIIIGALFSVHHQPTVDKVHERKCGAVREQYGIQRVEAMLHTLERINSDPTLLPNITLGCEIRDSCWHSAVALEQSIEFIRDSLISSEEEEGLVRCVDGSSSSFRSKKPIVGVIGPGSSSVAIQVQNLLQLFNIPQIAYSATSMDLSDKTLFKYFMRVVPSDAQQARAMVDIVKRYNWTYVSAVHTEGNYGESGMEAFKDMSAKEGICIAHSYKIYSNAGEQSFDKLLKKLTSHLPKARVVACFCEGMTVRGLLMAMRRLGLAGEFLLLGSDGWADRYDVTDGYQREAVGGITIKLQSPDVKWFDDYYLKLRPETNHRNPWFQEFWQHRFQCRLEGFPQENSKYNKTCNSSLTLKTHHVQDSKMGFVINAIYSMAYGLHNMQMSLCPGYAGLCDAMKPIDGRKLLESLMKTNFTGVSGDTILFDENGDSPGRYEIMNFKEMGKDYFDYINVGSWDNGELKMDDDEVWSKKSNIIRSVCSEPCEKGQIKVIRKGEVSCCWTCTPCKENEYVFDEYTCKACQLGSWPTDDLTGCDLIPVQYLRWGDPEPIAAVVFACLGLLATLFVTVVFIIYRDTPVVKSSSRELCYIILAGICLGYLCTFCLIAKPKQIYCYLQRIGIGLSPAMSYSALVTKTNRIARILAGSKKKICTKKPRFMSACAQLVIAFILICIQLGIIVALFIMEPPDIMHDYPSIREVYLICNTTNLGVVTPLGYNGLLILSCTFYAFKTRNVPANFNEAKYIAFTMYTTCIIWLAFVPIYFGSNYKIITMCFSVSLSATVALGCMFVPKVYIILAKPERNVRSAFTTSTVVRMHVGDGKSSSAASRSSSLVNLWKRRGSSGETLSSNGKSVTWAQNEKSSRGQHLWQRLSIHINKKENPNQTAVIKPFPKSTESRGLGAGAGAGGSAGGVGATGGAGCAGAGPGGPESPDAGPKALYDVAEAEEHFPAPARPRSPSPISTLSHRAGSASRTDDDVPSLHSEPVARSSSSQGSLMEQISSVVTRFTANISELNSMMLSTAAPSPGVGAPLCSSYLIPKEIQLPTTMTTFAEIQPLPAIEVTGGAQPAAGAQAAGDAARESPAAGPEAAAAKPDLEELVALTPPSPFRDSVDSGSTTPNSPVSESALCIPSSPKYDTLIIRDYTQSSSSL
Test: Cell-based functional Ca2+ mobilization assay (FDSS), potentiation of glutamate EC20 response
Details: maximum % effect in concentration-response curve, as percent of response to maximally effective glutamate
Experimental: Human embryonic kidney (HEK) cells transfected with rat mGluR5 were plated in clear bottom assay plates for assay in a Functional Drug Screening System (FDSS). […] After establishment of a fluorescence baseline for twelve seconds, the compounds of the present invention were added to the cells, and the response in cells was measured. […] Five minutes later, an mGluR5 agonist (e.g., glutamate, 3,5-dihydroxyphenylglycine, or quisqualate) was added to the cells, and the response of the cells was measured. […]
# Emax annotations

molecule | Emax / %
O=C1c2cc(COc3ccccc3)nn2CCN1c1ncccc1Cl | 68
COc1cnc(N2CCn3nc(COc4ccccc4)cc3C2=O)nc1OC | 63
Cc1c(COc2ccccc2)nn2c1C(=O)N(CC1CC1)CC2 | 23
CC1CN(c2ccc(F)cc2)C(=O)c2cc(COc3ccccc3)nn21 (racemic) | 68
Cc1cccc(OCc2cc3n(n2)CCN(c2ccc(F)cc2)C3=O)c1 | 64
Cc1cc(N2C(=O)c3cc(COc4ccccc4)nn3C[C@H]2C)ccc1F | 70
COc1ccnc(N2CCn3nc(COc4ccccc4)cc3C2=O)n1 | 69
COc1nc(N2CCn3nc(COc4ccccc4)cc3C2=O)ccc1C | 64
Cc1ccc(N2CCn3nc(COc4ccccc4)cc3C2=O)cn1 | 81

meta.source: patent US8592422B2
